- SYSTEM: KV1.2 (Homo sapiens, UniProt P16389)
- Sequence (P16389 whole entry): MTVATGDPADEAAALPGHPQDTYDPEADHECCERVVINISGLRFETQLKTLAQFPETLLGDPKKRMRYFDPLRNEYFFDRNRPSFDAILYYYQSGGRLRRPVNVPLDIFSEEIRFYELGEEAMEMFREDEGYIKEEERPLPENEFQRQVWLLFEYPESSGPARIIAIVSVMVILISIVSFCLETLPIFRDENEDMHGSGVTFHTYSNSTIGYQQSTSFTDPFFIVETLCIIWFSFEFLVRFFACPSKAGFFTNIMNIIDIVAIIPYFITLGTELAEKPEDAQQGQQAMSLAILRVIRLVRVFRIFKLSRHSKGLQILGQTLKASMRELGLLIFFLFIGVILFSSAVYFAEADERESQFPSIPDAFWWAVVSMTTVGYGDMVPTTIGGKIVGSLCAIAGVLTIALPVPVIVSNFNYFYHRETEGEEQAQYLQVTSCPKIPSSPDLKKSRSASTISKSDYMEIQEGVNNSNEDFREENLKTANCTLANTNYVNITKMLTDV
- PROTOCOL_TEXT: whole-cell patch clamp (koff/kon block kinetics)
ASSAY_ENDPOINT: Kd (nM)
All answers are understood in nM, so give the number only.

Consider the binder TFINHKCKSSSECLPACKAAIGRASGKCINSTCKCYY [Cm39 (α-KTx 4.8)] and give its measured Kd.
87.8
